B1: LINE1-full (parent)
chain: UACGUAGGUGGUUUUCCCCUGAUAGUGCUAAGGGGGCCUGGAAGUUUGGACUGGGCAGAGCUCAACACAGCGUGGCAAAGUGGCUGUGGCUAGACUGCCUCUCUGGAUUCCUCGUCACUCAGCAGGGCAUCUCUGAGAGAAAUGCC

Variants of: B1
experiment notes: self-cleavage, relative activity (ratio to wild type); higher = more cleavage; in vitro, sequencing; the parent is a self-cleaving ribozyme
measure: self-cleavage
Write the number on its own, no unit after it.

| sequence entry | self-cleavage |
| --- | --- |
| UACGUAGGUGGUUUUCCCCUGAUAGCGCUAAGGGGGCCUGGAAGUUUGGACUGGGCAGAGCUCAUCACAGCGUGGCAAAGUGGCUGUGGCUAGACUGCCUCUCUGGAUUCCUCGUCACUCAGCAGGGCAUCUCUGAGAGAAAUGCC [U26C A65U] | 0.14 |

Q: // query self-cleavage value for entry UACGUAGGUGGUUUUCCCCUGAUAGUGCUAAGGGGGCCUGGAGGUUUGGACGGGGCAGAGCUCAACACAGCGUGGCAAAGUGGCUGUGGCUAGACUGCCUCUCUGGAUUCCUCGUCACUCAGCAGGGCAUCUCUGAGAGAAAUGCC [A43G U52G]
Result: 1.64

Q: // query self-cleavage value for entry UACGUAGGUGGUUUUCCCCUGAUAGUGCUAAGGGGGCCUGGAAGUUUGGACUGGGCAGAGCUCAACACAGCGUGGCGAAGUGGCUGUGGCUAGACUGCCUCUCUGGAUUCCUCGUCACUCAGCAGGUCAUCUCUGAGAGAAAUGCC [A77G G127U]
Result: 2.58

Q: // query self-cleavage value for entry UACGUAGGUGGUUUUCCCCUGAUAGUGCUAAGGGGGCCUGGAAGUUUGGACUGGGCAGAGCUCAACACAGCGGGGCAAAGUGGCUGUGGCUAGACUGCCUCUCUGGAUUCCUCGUCACUCAGCAGGGCAUCCCUGAGAGAAAUGCC [U73G U132C]
Result: 1.58

Q: // query self-cleavage value for entry UACGUAGGUGGUUUUCCCCUGAUAGUGCUAAGGGGGCCUGGAAGUUUGGACUGGGCAGAGCUCAACACAGCGUGGCAAAGUGGCUUUGGCUAGACUGCCUCUCUGGAUUCCUCGUCACUCAGCAGGGCUUCUCUGAGAGAAAUGCC [G86U A129U]
Result: 0.09

Q: // query self-cleavage value for entry UACGUAGGUGGUUUUCCCCUGAUAGUGCUAAGGGGGCCUGGAAGUCUGGACUGGGCAGAGCUCAACACAGCGUGGCAAAGUGGCUGUGGCUAGACUGCCUCUCUGGAUUCCUCGUCACUCAGCACGGCAUCUCUGAGAGAAAUGCC [U46C G125C]
Result: 1.44
